Where these numbers come from: patent US12319739

- Tested On: human CD137 on primary human CD8+ T cells (human, UniProt Q07011 24-255)
- Sequence (Q07011 24-255): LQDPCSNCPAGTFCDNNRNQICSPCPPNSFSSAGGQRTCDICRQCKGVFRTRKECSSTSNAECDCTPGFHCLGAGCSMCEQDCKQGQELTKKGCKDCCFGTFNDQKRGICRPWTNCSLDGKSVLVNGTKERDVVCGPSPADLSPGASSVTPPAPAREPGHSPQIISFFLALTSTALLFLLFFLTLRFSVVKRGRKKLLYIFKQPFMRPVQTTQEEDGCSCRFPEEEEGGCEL
- Test Description: cell-based or functional assay
Listed binders paired with reported IL-2 release EC50, NCI-H226 co-culture, Donor A
Please give a number only; it is taken to be in nM.

Below: 2 binders and their reported IL-2 release EC50, NCI-H226 co-culture, Donor A.
INPUT: Suppose we examine the binder FS22-172-003-AA/FS28-256-024 (bispecific antibody, human IgG1, kappa, L234A L235A, V domains shown, IgG1 mAb^2 with LALA) VH: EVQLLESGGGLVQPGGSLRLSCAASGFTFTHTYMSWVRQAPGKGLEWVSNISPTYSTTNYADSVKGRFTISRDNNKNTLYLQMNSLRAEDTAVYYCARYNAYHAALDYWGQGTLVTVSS VL: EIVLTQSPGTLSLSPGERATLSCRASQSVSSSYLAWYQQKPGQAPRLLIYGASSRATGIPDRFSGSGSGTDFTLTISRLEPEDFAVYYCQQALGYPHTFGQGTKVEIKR ; what IL-2 release EC50, NCI-H226 co-culture, Donor A value has been reported?
OUTPUT: 1.29

INPUT: Suppose we examine the binder FS22-172-003-AA/FS28-024-060 (bispecific antibody, human IgG1, kappa, L234A L235A, V domains shown, IgG1 mAb^2 with LALA) VH: EVQLLESGGGLVQPGGSLRLSCAASGFTLSYSSMSWVRQAPGKGLEWVSFITPSTGYTHYADSVKGRFTISRDNSKNTLYLQMNSLRAEDTAVYYCARRALWFDYWGQGTLVTVSS VL: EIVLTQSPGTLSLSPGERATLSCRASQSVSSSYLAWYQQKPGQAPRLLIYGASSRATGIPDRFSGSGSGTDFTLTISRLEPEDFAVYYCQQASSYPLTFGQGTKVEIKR ; what IL-2 release EC50, NCI-H226 co-culture, Donor A value has been reported?
OUTPUT: 0.04

Switching to the query record.
INPUT: Suppose we examine the binder FS22-172-003-AA/FS28-256-014 (bispecific antibody, human IgG1, kappa, L234A L235A, V domains shown, IgG1 mAb^2 with LALA) VH: EVQLLESGGGLVQPGGSLRLSCAASGFTFTDTYMSWVRQAPGKGLEWVSNISPTYSTTNYADSVKGRFTISRDNSKNTLYLQMNSLRAEDTAVYYCARYNAYAAGLDYWGQGTLVTVSS VL: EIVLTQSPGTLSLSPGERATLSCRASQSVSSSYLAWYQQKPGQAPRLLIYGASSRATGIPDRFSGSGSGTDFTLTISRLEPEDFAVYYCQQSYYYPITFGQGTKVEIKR ; what IL-2 release EC50, NCI-H226 co-culture, Donor A value has been reported?
OUTPUT: 3.58
